Where do these numbers come from? They come from ChEMBL document CHEMBL5154845.

Test: Cmax in male ICR mouse at 20 mg/kg, po measured up to 24 hrs by LC-MS/MS analysis
Format: ADME, organism-based
Design: time < 24 hrs, dose 20 mg/kg, route po
Conditions: in vivo
What Cmax was measured for each of the following?
Numbers only, in ng/mL.

Nc1nc(-c2ccco2)c2cnn(CCc3ccc(C(=O)Nc4ccccc4N)cc3)c2n1 = 3420
Nc1nc(-c2ccco2)c2cnn(Cc3cccc(OCCCCCCC(=O)NO)n3)c2n1 = 608

Okay, next one:
Query :: Field request: Cmax | item: Nc1nc(-c2ccco2)c2cnn(Cc3cccc(/C=C/C(=O)NO)c3)c2n1
Result :: 122

---

Target chain: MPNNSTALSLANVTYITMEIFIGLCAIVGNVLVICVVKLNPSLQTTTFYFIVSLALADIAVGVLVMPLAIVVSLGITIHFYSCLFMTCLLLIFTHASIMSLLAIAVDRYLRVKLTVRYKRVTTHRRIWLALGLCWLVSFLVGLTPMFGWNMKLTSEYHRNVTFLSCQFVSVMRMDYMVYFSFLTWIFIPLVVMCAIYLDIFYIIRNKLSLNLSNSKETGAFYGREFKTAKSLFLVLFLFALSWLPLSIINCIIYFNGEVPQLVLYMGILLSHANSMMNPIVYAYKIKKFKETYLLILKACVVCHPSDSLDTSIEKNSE
test.readout: Ki

Nc1nc(-c2ccco2)c2cnn(Cc3cccc(OCCCCCCC(=O)NO)n3)c2n1 = > 10 µM

Okay, next one:
Query :: Field request: Ki | item: Nc1nc(-c2ccco2)c2cnn(Cc3cccc(OCCCCCCC(=O)NO)c3)c2n1
Result :: > 10 µM
